Sourced from the supplement of paper PMC10065799

# subject-of-test: c-Src SH2
# procedure-details: SH2 binding enrichment of the phosphorylated peptide, bacterial display (enrichment ratio); higher = better substrate or ligand; peptides without Tyr show the background;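 note: peptide library displayed on the E. coli surface as eCPX fusions, selected cells deep-sequenced, score is each peptide's frequency after selection divided by its frequency in the input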
measure: SH2 binding enrichment

The examples below pair each entry with its known result.
residue-codes | numeric-readout
DLQDEYDFKCK [STAT1_Y170] | 0.448
MSPPGYKLVTG [GJA1_Y286] | 0.286
YQLENCCNGGG [INS_Y108_Y108C] | 0.972
HTVVSYAEVRA [CLOCK_Y378] | 3.25
KVQVSYKGETK [HSPA1A_Y107] | 0.493
VYSSDYFSFVL [USP24_Y2138] | 0.442

1 = QITQVCGFFDE [PPP2CA_Y127_Y127C_YF]
2 = LERYIYNREEL [HLA-DPB1_Y59_F64L]
IN: In the pair 1 and 2 , the larger recorded SH2 binding enrichment belongs to which? Return value: the label identifying the chosen record.
OUT: 2
(2: 0.852, 1: 0.521)
